Consider the following compounds; for each one, report its relative viability.
# Tested on: NCI-H727
# assay-method-text: relative viability (nuclei count vs DMSO), 5 days (fraction); higher = more cells survive
# reported-conditions: first compound 0.01 µM
Could you respond with only the numeric value?

Exercise: Which relative viability is listed for CCN(CC)CCCCNc1ncc2cc(-c3cc(OC)cc(OC)c3)c(NC(=O)NC(C)(C)C)nc2n1 + CS(=O)(=O)N1CCN(Cc2cc3nc(-c4cccc5[nH]ncc45)nc(N4CCOCC4)c3s2)CC1 [Pictilisib] (partner 1 µM) ?
Key: 0.413

Exercise: Next record, please: CCN(CC)CCCCNc1ncc2cc(-c3cc(OC)cc(OC)c3)c(NC(=O)NC(C)(C)C)nc2n1 + CC(C)C[C@H](NC(=O)[C@H](Cc1ccccc1)NC(=O)c1cnccn1)B(O)O [Bortezomib] (partner 0.002 µM)
Key: 1.39

Exercise: Next record, please: CCN(CC)CCCCNc1ncc2cc(-c3cc(OC)cc(OC)c3)c(NC(=O)NC(C)(C)C)nc2n1 + NC(=O)Nc1cc(-c2cccc(F)c2)sc1C(=O)N[C@H]1CCCNC1 [AZD7762] (partner 0.2 µM)
Key: 0.766

====

# System: NCI-H647
# assay-method-text: relative viability (nuclei count vs DMSO), 5 days (fraction); higher = more cells survive
# reported-conditions: first compound 0.3162 µM
experimental-readout: relative viability
Could you respond with only the numeric value?

Exercise: Which relative viability is listed for O=c1cc(N2CCOCC2)oc2c(-c3cccc4c3sc3ccccc34)cccc12 + Cc1nc(Nc2ncc(C(=O)Nc3c(C)cccc3Cl)s2)cc(N2CCN(CCO)CC2)n1 [Dasatinib] (partner 0.075 µM) ?
Key: 0.224

Exercise: Next record, please: O=c1cc(N2CCOCC2)oc2c(-c3cccc4c3sc3ccccc34)cccc12 + NC(=O)Nc1cc(-c2cccc(F)c2)sc1C(=O)N[C@H]1CCCNC1 [AZD7762] (partner 0.2 µM)
Key: 0.515

Exercise: Next record, please: CCN(CC)CCCCNc1ncc2cc(-c3cc(OC)cc(OC)c3)c(NC(=O)NC(C)(C)C)nc2n1 + C[C@]1(O)C[C@@H](c2nc(-c3ccc4ccc(-c5ccccc5)nc4c3)c3c(N)nccn32)C1 [Linsitinib] (partner 1 µM)
Key: 1.52

Exercise: Next record, please: O=c1cc(N2CCOCC2)oc2c(-c3cccc4c3sc3ccccc34)cccc12 + O=C(c1cc(Cc2n[nH]c(=O)c3ccccc23)ccc1F)N1CCN(C(=O)C2CC2)CC1 [Olaparib] (partner 8 µM)
Key: 0.655

Exercise: Next record, please: O=c1cc(N2CCOCC2)oc2c(-c3cccc4c3sc3ccccc34)cccc12 + O=C(CCCCCCC(=O)Nc1ccccc1)NO [Vorinostat] (partner 1 µM)
Key: 0.695

====

# Test system: SK-LU-1
# assay-method-text: relative viability (nuclei count vs DMSO), 5 days (fraction); higher = more cells survive
# reported-conditions: first compound 0.2 µM
Consider the following compounds; for each one, report its relative viability.
Could you respond with only the numeric value?

Exercise: Which relative viability is listed for COCC1(CO)C(=O)C2CCN1CC2 (centres undefined) [PRIMA-1MET] + O=C(c1cc(Cc2n[nH]c(=O)c3ccccc23)ccc1F)N1CCN(C(=O)C2CC2)CC1 [Olaparib] (partner 8 µM) ?
Key: 0.504

Exercise: Next record, please: COCC1(CO)C(=O)C2CCN1CC2 (centres undefined) [PRIMA-1MET] + Cc1nc(Nc2ncc(C(=O)Nc3c(C)cccc3Cl)s2)cc(N2CCN(CCO)CC2)n1 [Dasatinib] (partner 0.075 µM)
Key: 0.192

Exercise: Next record, please: COCC1(CO)C(=O)C2CCN1CC2 (centres undefined) [PRIMA-1MET] + CS(=O)(=O)N1CCN(Cc2cc3nc(-c4cccc5[nH]ncc45)nc(N4CCOCC4)c3s2)CC1 [Pictilisib] (partner 1 µM)
Key: 0.592

Exercise: Next record, please: COCC1(CO)C(=O)C2CCN1CC2 (centres undefined) [PRIMA-1MET] + O=C(CCCCCCC(=O)Nc1ccccc1)NO [Vorinostat] (partner 1 µM)
Key: 0.852

====

# Tested on: 201T
# assay-method-text: relative viability (nuclei count vs DMSO), 5 days (fraction); higher = more cells survive
# reported-conditions: first compound 0.08 µM
Label 1 (yes) when relative viability is strictly below 1; at or above that, label 0 (no).

Exercise: Lab note: confirm whether the reported relative viability for this compound is below 1, equality not counting. compound: COc1nc(C)cnc1NS(=O)(=O)c1cccnc1-c1ccc(-c2nnco2)cc1 [Zibotentan] + COc1cc2c(Oc3ccc(NC(=O)C4(C(=O)Nc5ccc(F)cc5)CC4)cc3F)ccnc2cc1OCCCN1CCOCC1 [Foretinib] (partner 0.25 µM)
Key: 0 (no)

Exercise: Next record, please: O=c1cc(-c2cccc3c2Sc2ccccc2S3)oc(N2CCOCC2)c1 + Nc1nc2[nH]cc(CCc3ccc(C(=O)N[C@@H](CCC(=O)O)C(=O)O)cc3)c2c(=O)[nH]1 [Pemetrexed] (partner 0.2 µM)
Key: 1 (yes)

Exercise: Next record, please: O=c1cc(-c2cccc3c2Sc2ccccc2S3)oc(N2CCOCC2)c1 + O=C(c1cc(Cc2n[nH]c(=O)c3ccccc23)ccc1F)N1CCN(C(=O)C2CC2)CC1 [Olaparib] (partner 8 µM)
Key: 1 (yes)

Exercise: Next record, please: O=c1cc(-c2cccc3c2Sc2ccccc2S3)oc(N2CCOCC2)c1 + COc1cccc2cc(-c3nc([C@H]4CC[C@H](C(=O)O)CC4)n4ncnc(N)c34)[nH]c12 [OSI-027] (partner 0.5 µM)
Key: 1 (yes)

Exercise: Next record, please: COc1nc(C)cnc1NS(=O)(=O)c1cccnc1-c1ccc(-c2nnco2)cc1 [Zibotentan] + CC(C)C[C@H](NC(=O)[C@H](Cc1ccccc1)NC(=O)c1cnccn1)B(O)O [Bortezomib] (partner 0.002 µM)
Key: 0 (no)

Exercise: Next record, please: COc1nc(C)cnc1NS(=O)(=O)c1cccnc1-c1ccc(-c2nnco2)cc1 [Zibotentan] + CCNC(=O)c1noc(-c2cc(C(C)C)c(O)cc2O)c1-c1ccc(CN2CCOCC2)cc1 [Luminespib] (partner 0.01 µM)
Key: 0 (no)

Exercise: Next record, please: COc1nc(C)cnc1NS(=O)(=O)c1cccnc1-c1ccc(-c2nnco2)cc1 [Zibotentan] + Cc1nc(NC(=O)N2CCC[C@H]2C(N)=O)sc1-c1ccnc(C(C)(C)C(F)(F)F)c1 [Alpelisib] (partner 2 µM)
Key: 0 (no)

Exercise: Next record, please: COc1nc(C)cnc1NS(=O)(=O)c1cccnc1-c1ccc(-c2nnco2)cc1 [Zibotentan] + O=C(CCCCCCC(=O)Nc1ccccc1)NO [Vorinostat] (partner 1 µM)
Key: 1 (yes)

Exercise: Next record, please: COc1nc(C)cnc1NS(=O)(=O)c1cccnc1-c1ccc(-c2nnco2)cc1 [Zibotentan] + NC(=O)Nc1cc(-c2cccc(F)c2)sc1C(=O)N[C@H]1CCCNC1 [AZD7762] (partner 0.2 µM)
Key: 1 (yes)

====

# System: NCI-H1355
# assay-method-text: relative viability (nuclei count vs DMSO), 5 days (fraction); higher = more cells survive
# reported-conditions: first compound 0.3162 µM
experimental-readout: relative viability
Could you respond with only the numeric value?

Exercise: Which relative viability is listed for CCN(CC)CCCCNc1ncc2cc(-c3cc(OC)cc(OC)c3)c(NC(=O)NC(C)(C)C)nc2n1 + CS(=O)(=O)CCNCc1ccc(-c2ccc3ncnc(Nc4ccc(OCc5cccc(F)c5)c(Cl)c4)c3c2)o1 [Lapatinib] (partner 2 µM) ?
Key: 1.19

Exercise: Next record, please: O=c1cc(N2CCOCC2)oc2c(-c3cccc4c3sc3ccccc34)cccc12 + CS(=O)(=O)N1CCN(Cc2cc3nc(-c4cccc5[nH]ncc45)nc(N4CCOCC4)c3s2)CC1 [Pictilisib] (partner 1 µM)
Key: 0.429

Exercise: Next record, please: O=c1cc(N2CCOCC2)oc2c(-c3cccc4c3sc3ccccc34)cccc12 + C[C@]1(O)C[C@@H](c2nc(-c3ccc4ccc(-c5ccccc5)nc4c3)c3c(N)nccn32)C1 [Linsitinib] (partner 1 µM)
Key: 0.819

Exercise: Next record, please: CCN(CC)CCCCNc1ncc2cc(-c3cc(OC)cc(OC)c3)c(NC(=O)NC(C)(C)C)nc2n1 + CC(=O)Nc1cccc(-n2c(=O)n(C3CC3)c(=O)c3c(Nc4ccc(I)cc4F)n(C)c(=O)c(C)c32)c1 [Trametinib] (partner 0.02 µM)
Key: 0.502

Exercise: Next record, please: O=c1cc(N2CCOCC2)oc2c(-c3cccc4c3sc3ccccc34)cccc12 + CC1(C)CCC(c2ccc(Cl)cc2)=C(CN2CCN(c3ccc(C(=O)NS(=O)(=O)c4ccc(N[C@H](CCN5CCOCC5)CSc5ccccc5)c(S(=O)(=O)C(F)(F)F)c4)cc3)CC2)C1 [Navitoclax] (partner 0.5 µM)
Key: 0.941

Exercise: Next record, please: CCN(CC)CCCCNc1ncc2cc(-c3cc(OC)cc(OC)c3)c(NC(=O)NC(C)(C)C)nc2n1 + CC(C)C[C@H](NC(=O)[C@H](Cc1ccccc1)NC(=O)c1cnccn1)B(O)O [Bortezomib] (partner 0.002 µM)
Key: 1.41

Exercise: Next record, please: CCN(CC)CCCCNc1ncc2cc(-c3cc(OC)cc(OC)c3)c(NC(=O)NC(C)(C)C)nc2n1 + Nc1ncn([C@H]2C[C@H](O)[C@@H](CO)O2)c(=O)n1 [Decitabine] (partner 2 µM)
Key: 0.396

Exercise: Next record, please: CCN(CC)CCCCNc1ncc2cc(-c3cc(OC)cc(OC)c3)c(NC(=O)NC(C)(C)C)nc2n1 + Nc1nc2[nH]cc(CCc3ccc(C(=O)N[C@@H](CCC(=O)O)C(=O)O)cc3)c2c(=O)[nH]1 [Pemetrexed] (partner 0.2 µM)
Key: 1.11

Exercise: Next record, please: O=c1cc(N2CCOCC2)oc2c(-c3cccc4c3sc3ccccc34)cccc12 + O=C(c1cc(Cc2n[nH]c(=O)c3ccccc23)ccc1F)N1CCN(C(=O)C2CC2)CC1 [Olaparib] (partner 8 µM)
Key: 0.709

Exercise: Next record, please: CCN(CC)CCCCNc1ncc2cc(-c3cc(OC)cc(OC)c3)c(NC(=O)NC(C)(C)C)nc2n1 + N=C(N)NC(=N)NCCc1ccccc1 [Phenformin] (partner 250 µM)
Key: 0.501
